Molecular target: Human autotaxin enzyme (Homo sapiens, UniProt Q13822)
Construct: purchased R&D System
Assay: Evaluation of autotaxin inhibitor, Method B (Test Example 2): TG-mTMP fluorescence
Assay type: biochemical
Conditions: Assay Method B (Test Example 2), human autotaxin; read-out: Inhibitory Activity (autotaxin enzyme inhibitory activity, IC50 class)
Procedure: (Method B) Evaluation of Autotaxin Inhibitor Solution A containing 25 mM Tris-HCl buffer (pH7.5), 100 mM NaCl, 5 mM MgCl2 and 0.1% BSA was prepared. […] 5 μl of 150 mM EDTA in Solution A was added to quench the reaction, and the fluorescent dye TokyoGreen, which was produced by the reaction, was detected. The fluorescence was detected using ViewLux (PerkinElmer, Inc.) with an excitation wavelength of 480 nm and a fluorescence wavelength of 540 nm.
pIC50: −log10 of the molar value.
PROPERTY_NAME: pIC50

CCCCCn1c(C)c(Cc2ccccc2)c(=O)n2cc(-c3ccc(Cl)cc3)nc12 = 7.00 to 8.00
CCCCCn1c(C)cc(=O)n2cc(-c3cccc(Cl)c3)nc12 = < 6.00
CCCCCn1c(N2CCN(c3cc(F)cc(F)c3)CC2)cc(=O)n2cc(-c3ccc(Cl)cc3)nc12 = 7.00 to 8.00
CCCc1cn2c(=O)ccn(CCCc3ccc(Cl)cc3)c2n1 = < 6.00
CCCCCn1c(NCCN2CCOCC2)cc(=O)n2cc(-c3ccc(Cl)cc3)nc12 = > 8.00

The recorded pIC50 for entry CCCCCn1c(C)cc(=O)n2cc(-c3ccc(F)cc3F)nc12 equals 6.00 to 7.00

molecule Cc1cc(=O)n2cc(-c3ccc(Cl)cc3)nc2n1Cc1ccncc1 , pIC50 observed: 6.00 to 7.00

pIC50 reported for this molecule CCCCCn1c(C)cc(=O)n2cc(-c3ccc(C4CCCCC4)cc3)nc12 : < 6.00
